Examples of molecules with documented minimal effective dose follow.
# System: Mus musculus
# Test Protocol: Reversal of 5-CT-induced hypothermic effect in po dosed mouse assessed as minimum effective dose
# Format: functional
# Particulars: read-out: MED
Please state the figure in mg/kg; there is no need to write the unit.

Worked examples, 3 molecules total:
INSERT INTO measurements (molecule, target_or_test_system, measured_value) VALUES
  ('CC1(O)c2ccccc2-c2ccc(C(=O)N=C(N)N)cc21.Cl (stereo unspecified)', 'Mus musculus', 30),
  ('COC1(C)c2ccccc2-c2ccc(C(=O)N=C(N)N)cc21.Cl (stereo unspecified)', 'Mus musculus', 30),
  ('Cl.NC(N)=NC(=O)c1ccc2c(c1)C1(CCCO1)c1ccccc1-2 (stereo unspecified)', 'Mus musculus', 3);

[Q] Return reported minimal effective dose; argument: CCC1(OC)c2ccccc2-c2ccc(C(=O)N=C(N)N)cc21.Cl (stereo unspecified)
[A] 10

###

# Target Or Test System: D(2) dopamine receptor (Homo sapiens, UniProt P14416)
# Sequence (P14416 whole entry): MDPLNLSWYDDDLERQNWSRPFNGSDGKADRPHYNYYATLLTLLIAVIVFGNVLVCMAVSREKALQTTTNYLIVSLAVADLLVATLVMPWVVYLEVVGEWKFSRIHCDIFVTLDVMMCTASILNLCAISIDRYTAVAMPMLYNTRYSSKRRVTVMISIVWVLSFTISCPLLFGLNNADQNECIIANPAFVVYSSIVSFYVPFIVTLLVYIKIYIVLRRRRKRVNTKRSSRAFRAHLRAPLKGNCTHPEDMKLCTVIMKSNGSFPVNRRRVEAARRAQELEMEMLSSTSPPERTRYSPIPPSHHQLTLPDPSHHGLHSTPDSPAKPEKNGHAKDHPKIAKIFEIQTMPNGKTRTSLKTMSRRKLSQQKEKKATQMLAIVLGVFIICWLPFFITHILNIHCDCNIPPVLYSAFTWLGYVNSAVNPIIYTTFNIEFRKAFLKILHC
# Test Protocol: Binding affinity to dopamine D2 receptor (unknown origin)
Recorded Endpoint: Ki

[Q] Return reported Ki; argument: Cl.NC(N)=NC(=O)c1ccc2c(c1)C1(CCCO1)c1ccccc1-2 (stereo unspecified)
[A] > 1000 nM

###

# Target Or Test System: Muscarinic acetylcholine receptor M5 (Homo sapiens)
# Sequence (P08912 whole entry): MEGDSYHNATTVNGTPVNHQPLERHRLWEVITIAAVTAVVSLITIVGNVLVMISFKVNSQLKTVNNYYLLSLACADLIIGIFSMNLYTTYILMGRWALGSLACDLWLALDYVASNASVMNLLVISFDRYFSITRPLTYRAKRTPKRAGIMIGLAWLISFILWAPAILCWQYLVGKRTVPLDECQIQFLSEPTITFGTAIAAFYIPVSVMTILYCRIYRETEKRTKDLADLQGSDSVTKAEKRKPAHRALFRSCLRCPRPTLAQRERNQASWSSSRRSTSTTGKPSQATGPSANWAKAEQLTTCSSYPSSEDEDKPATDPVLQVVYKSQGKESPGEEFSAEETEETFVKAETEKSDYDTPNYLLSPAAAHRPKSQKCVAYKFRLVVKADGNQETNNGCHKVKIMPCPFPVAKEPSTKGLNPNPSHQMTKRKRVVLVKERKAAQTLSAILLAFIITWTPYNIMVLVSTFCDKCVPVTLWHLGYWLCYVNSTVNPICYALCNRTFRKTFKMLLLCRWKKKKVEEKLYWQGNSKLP
Recorded Endpoint: Ki

[Q] Return reported Ki; argument: Cl.NC(N)=NC(=O)c1ccc2c(c1)C1(CCCO1)c1ccccc1-2 (stereo unspecified)
[A] > 1000 nM

###

Examples of compounds with documented pKi follow.
# Target Or Test System: 5-hydroxytryptamine receptor 7 (Homo sapiens, UniProt P34969)
# Sequence (P34969 whole entry): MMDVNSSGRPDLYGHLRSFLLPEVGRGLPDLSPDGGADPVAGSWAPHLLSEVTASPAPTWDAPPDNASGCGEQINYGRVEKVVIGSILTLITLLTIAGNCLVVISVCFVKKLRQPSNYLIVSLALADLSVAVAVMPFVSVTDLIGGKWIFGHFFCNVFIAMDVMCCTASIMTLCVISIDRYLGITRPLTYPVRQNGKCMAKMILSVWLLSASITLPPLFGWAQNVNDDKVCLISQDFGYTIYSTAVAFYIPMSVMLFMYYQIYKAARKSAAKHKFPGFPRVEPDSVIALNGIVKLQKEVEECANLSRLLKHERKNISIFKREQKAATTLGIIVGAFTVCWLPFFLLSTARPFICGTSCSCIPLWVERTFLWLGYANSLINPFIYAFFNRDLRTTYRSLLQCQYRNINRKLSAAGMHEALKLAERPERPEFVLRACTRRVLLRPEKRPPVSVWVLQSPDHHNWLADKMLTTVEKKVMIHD
// returns pKi (minus log10 of molar concentration), number only

INSERT INTO measurements (compound, measured_value) VALUES
  ('COCC1(OC)c2ccccc2-c2ccc(C(=O)N=C(N)N)cc21.Cl (stereo not drawn)', 9.12);

[Q] Give recorded pKi with 5-hydroxytryptamine receptor 7 (Homo sapiens, UniProt P34969) for the following compound: NC(N)=NC(=O)c1ccc2c(c1)C1(CCOCC1)c1ccccc1-2
[A] 8.89

###

# Target Or Test System: 5-hydroxytryptamine receptor 2B (Homo sapiens, UniProt P41595)
# Sequence (P41595 whole entry): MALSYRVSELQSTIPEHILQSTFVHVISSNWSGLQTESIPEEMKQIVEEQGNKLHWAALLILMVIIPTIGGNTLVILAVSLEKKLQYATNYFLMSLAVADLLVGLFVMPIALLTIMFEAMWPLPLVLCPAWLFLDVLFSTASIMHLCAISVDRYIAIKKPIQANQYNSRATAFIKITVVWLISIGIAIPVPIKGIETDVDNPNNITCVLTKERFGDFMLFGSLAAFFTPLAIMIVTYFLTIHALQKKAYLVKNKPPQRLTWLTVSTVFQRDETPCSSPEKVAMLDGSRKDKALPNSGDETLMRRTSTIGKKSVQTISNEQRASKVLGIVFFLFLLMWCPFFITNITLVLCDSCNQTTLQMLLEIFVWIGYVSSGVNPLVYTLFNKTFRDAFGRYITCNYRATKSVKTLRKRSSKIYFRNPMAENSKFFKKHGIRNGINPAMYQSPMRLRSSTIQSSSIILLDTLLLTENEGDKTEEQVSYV
Output Condition met for records whose Ki is lower than 3 nM, Condition not met for records at or above 3 nM.

Would you please look over these solved cases?
INSERT INTO assay_data (compound, target_or_test_system, class_name) VALUES
  ('Cl.NC(N)=NC(=O)c1ccc2c(c1)C1(CCCO1)c1ccccc1-2 (stereo unspecified)', '5-hydroxytryptamine receptor 2B (Homo sapiens, UniProt P41595)', 'Condition not met'),
  ('NC(N)=NC(=O)c1ccc2c(c1)[C@@]1(CCCO1)c1ccccc1-2', '5-hydroxytryptamine receptor 2B (Homo sapiens, UniProt P41595)', 'Condition not met'),
  ('NC(N)=NC(=O)c1ccc2c(c1)C1(CC1)c1ccccc1-2', '5-hydroxytryptamine receptor 2B (Homo sapiens, UniProt P41595)', 'Condition met');

[Q] Quick check: Ki of NC(N)=NC(=O)c1ccc2c(c1)[C@]1(CCCO1)c1ccccc1-2 under 3 nM?
[A] Condition met

[Q] Quick check: Ki of COC1(C)c2ccccc2-c2ccc(C(=O)N=C(N)N)cc21.Cl (stereo unspecified) under 3 nM?
[A] Condition not met

[Q] Quick check: Ki of NC(N)=NC(=O)c1ccc2c(c1)C1(CCOCC1)c1ccccc1-2 under 3 nM?
[A] Condition not met

Entry source: ChEMBL document CHEMBL3351957
